TEST_SYSTEM: recombinant human NF-kappaB-inducing kinase (NIK/MAP3K14) (Homo sapiens (Human), UniProt Q99558)
Sequence (Q99558 whole entry): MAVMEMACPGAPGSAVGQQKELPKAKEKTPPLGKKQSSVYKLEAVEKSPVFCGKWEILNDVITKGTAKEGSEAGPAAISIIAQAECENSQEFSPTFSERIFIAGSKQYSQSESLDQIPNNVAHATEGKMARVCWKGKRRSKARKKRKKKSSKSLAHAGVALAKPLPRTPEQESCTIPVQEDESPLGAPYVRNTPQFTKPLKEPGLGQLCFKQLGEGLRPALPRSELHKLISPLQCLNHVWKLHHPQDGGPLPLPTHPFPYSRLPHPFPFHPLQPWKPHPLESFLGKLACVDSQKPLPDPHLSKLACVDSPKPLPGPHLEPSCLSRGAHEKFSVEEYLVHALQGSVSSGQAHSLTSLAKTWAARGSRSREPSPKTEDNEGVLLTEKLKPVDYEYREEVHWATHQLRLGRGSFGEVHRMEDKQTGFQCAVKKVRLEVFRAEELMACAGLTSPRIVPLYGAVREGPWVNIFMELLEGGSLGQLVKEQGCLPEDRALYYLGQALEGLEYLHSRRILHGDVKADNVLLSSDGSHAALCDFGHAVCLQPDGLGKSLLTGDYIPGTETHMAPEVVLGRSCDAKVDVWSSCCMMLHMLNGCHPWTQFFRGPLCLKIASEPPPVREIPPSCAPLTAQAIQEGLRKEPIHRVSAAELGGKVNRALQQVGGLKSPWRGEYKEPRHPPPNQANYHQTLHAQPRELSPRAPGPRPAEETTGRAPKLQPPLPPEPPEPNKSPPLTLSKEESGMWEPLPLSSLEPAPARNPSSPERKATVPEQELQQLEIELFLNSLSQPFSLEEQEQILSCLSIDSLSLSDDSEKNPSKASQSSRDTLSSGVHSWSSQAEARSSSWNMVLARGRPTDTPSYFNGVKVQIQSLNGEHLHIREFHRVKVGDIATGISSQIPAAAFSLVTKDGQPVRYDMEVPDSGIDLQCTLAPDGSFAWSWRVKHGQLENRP
ASSAY_OVERVIEW: Inhibition of auto-phosphorylation of recombinant human NIK/MAP3K14 (AlphaScreen)
COND: NIK auto-phosphorylation, 5 μM ATP, 1 nM NIK, 2 h at 25° C.; average of values
READOUT_NAME: pIC50
Convention used: pIC50 is expressed as -log10 of the molar concentration.

Take a look at these entries with their results.
                                smiles_text  readout_value
0  COc1ccc(C#C[C@]2(O)CCN(C)C2=O)cc1-c1nc2c(N)ncnc2s1           9.00
1  Cc1cc([C@](C)(O)C#Cc2ccc(C)c(-c3ncc4ccnc(N)c4n3)c2)no1           7.51

**Query** Given Cc1cc([C@](C)(O)C#Cc2ccc(C)c(-c3nc4c(N)ncnc4s3)c2)no1 , state its recorded pIC50.
**Result** 9.05

**Query** Now the compound CN1CC[C@@](O)(C#Cc2cccc(-c3nc4c(N)ncnc4s3)c2)C1=O
**Result** 8.92

**Query** And COc1ccc(C#C[C@]2(O)CCN(C)C2=O)cc1-c1ncc2ccnc(N)c2n1 ?
**Result** 8.70

**Query** Next compound up: CN1CC[C@@](O)(C#Cc2cccc(-c3nc4c(N)ncnc4o3)c2)C1=O
**Result** 6.46

**Query** Same again, this time with CC(C)c1ncnc2ccc(-c3cccc(C#C[C@]4(O)CCN(C)C4=O)c3)nc12
**Result** 7.23

**Query** Quick one: Cc1nc(N)c2nc(-c3cccc(C#C[C@@](C)(O)c4ncc(C)s4)c3)ccc2n1
**Result** 7.92

**Query** Then what about the compound CN1CC[C@@](O)(C#Cc2cccc(-c3ncc4ccnc(N5CCC5)c4n3)c2)C1=O ?
**Result** 6.07

**Query** Next up: CN1CC[C@@](O)(C#Cc2cccc(-c3cc(N4CCC4)c4ncnc(N)c4n3)c2)C1=O
**Result** 9.05

**Query** Entry to check: CCc1nc(N)c2nc(-c3cccc(C#C[C@]4(O)CCN(C)C4=O)c3)ccc2n1
**Result** 9.10
